Tested on: WM3928 cells
Assay: WM3928 Cell Proliferation Assay (1)
Format: cell-based
readout-name: IC50

// known answers, use as guide
Cc1ccc(NC(=O)c2cnnc(C3CC3)c2)cc1-c1nccc(-c2ccnc(NC(=O)C3CC3)c2)n1 [Example 272] = 100 to 500 nM
CNC(=O)c1cc(-c2nccc(-c3cc(NC(=O)c4ccnc(C(C)(C)C#N)c4)ccc3C)n2)ccn1 [Example 78] = ≤ 100 nM
Cc1ccc(NC(=O)c2ccnc(C(F)(F)F)c2)cc1-c1ccnc(-c2ccnc(N)c2)n1 [Example 122] = 1000 to 10000 nM

Then this compound:
Per the records, this compound ( Cc1ccc(NC(=O)c2cc(C3CC3)n(C)n2)cc1-c1ccnc(-c2ccnc(NC(=O)C3CC3)c2)n1 [Example 236] ) has IC50 equal to 500 to 1000 nM

---

Test system: H2405 cells
Assay: H2405 Cell Proliferation Assay (1)
Format: cell-based
Details: Homo sapiens, NCI-H2405
readout-name: IC50

// known answers, use as guide
COCCNC(=O)c1cc(-c2cnnc(-c3cc(NC(=O)c4cccc(C5CC5)c4)ccc3C)c2)ccn1 = 1000 to 10000 nM
Cc1ccc(NC(=O)c2ccnc(C(C)(C)C#N)c2)cc1-c1cccc(-c2ccnc3[nH]ncc23)c1 = 100 to 500 nM
Cc1cc(F)c(NC(=O)c2ccnc(C(F)(F)F)c2)cc1-c1cncc(-c2ccnc(NC(=O)C3CC3)c2)n1 = 100 to 500 nM
CNC(=O)c1cc(-c2cc(-c3cc(NC(=O)c4ccnc(C(F)(F)F)c4)ccc3C)cc(C3CC3)n2)ccn1 = ≤ 100 nM
Cc1ccc(NC(=O)c2cnnc(C3CC3)c2)cc1-c1nccc(-c2ccnc(NC(=O)C3CC3)c2)n1 = 100 to 500 nM

Lab note: each compound below needs its IC50 filled in.
1. Cc1cc(F)c(NC(=O)c2ccnc(C(C)(C)F)c2)cc1-c1cncc(-c2ccnc(NC(=O)C3CC3)c2)c1
2. Cc1ccc(NC(=O)c2ccnc(C(F)F)c2)cc1-c1cncc(-c2cc(NC(=O)C3CC3)ncn2)c1
3. COC(=O)Nc1cc(-c2cncc(-c3cc(NC(=O)c4ccnc(C(C)(F)F)c4)ccc3C)c2)ncn1

1: ≤ 100 nM; 2: ≤ 100 nM; 3: 100 to 500 nM

Lab note: each compound below needs its IC50 filled in.
1. Cc1ncc(NC(=O)c2ccnc(C(C)(C)F)c2)cc1-c1cc(-c2ccnc(NC(=O)C3CC3)c2)cnn1
2. CNC(=O)c1cc(-c2cc(-c3cc(C(=O)Nc4ccnc(C(C)(C)C#N)c4)ccc3C)ccn2)ccn1
3. CNC(=O)c1cc(-c2ccnc(-c3cc(NC(=O)c4ccnc(C(C)(C)F)c4)ccc3C)c2)ccn1
4. COCCNc1cc(-c2nccc(-c3cc(NC(=O)c4ccnc(C(C)(C)C#N)c4)ccc3C)n2)ccn1
5. COC(=O)Nc1cc(-c2cc(-c3cc(NC(=O)c4ccnc(C(F)(F)F)c4)cnc3C)ccn2)ccn1
6. Cc1ccc(NC(=O)c2ccnc(C3CC3)c2)cc1-c1cncc(-c2cc(NC(=O)C3CC3)ncn2)c1

["100 to 500 nM", "100 to 500 nM", "100 to 500 nM", "1000 to 10000 nM", "100 to 500 nM", "≤ 100 nM"]

Lab note: each compound below needs its IC50 filled in.
1. Cc1cc(C(=O)Nc2cnc(C)c(-c3ccnc(-c4ccnc(NC(=O)C5CC5)c4)n3)c2)ccn1
2. Cc1ccc(NC(=O)c2ccnc(C(C)(C)F)c2)cc1-c1cncc(-c2ccnc(NC(=O)C3CC3)c2)c1

1. 1000 to 10000 nM
2. ≤ 100 nM

---

Target: B-Raf (V600E) (SEQ. ID NO: 4) kinase (Homo sapiens (Human), UniProt P15056, V600E)
Sequence (P15056 416-766 V600E): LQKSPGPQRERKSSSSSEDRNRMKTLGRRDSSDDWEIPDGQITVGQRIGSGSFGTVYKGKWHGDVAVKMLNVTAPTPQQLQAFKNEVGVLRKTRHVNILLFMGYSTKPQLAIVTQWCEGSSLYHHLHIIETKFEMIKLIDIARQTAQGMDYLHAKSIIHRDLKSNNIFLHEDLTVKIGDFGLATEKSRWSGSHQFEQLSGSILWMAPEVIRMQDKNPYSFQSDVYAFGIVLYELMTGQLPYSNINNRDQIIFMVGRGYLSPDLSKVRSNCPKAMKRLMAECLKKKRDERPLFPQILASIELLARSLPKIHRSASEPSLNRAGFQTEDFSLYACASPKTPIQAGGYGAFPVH
Experiment: Biochemical Assay for B-Raf (V600E) (1)
Conditions: Table J, BRAF V600E, assay version (1); read-out: BRAF VE (1) IC50
pIC50: −log10 of the molar value.
readout-name: pIC50

CCC(=O)Nc1cc(-c2cccc(-c3cc(NC(=O)c4ccnc(C(C)(C)C#N)c4)cnc3C)n2)ccn1 = ≥ 7.00

Lab note: each compound below needs its pIC50 filled in.
1. Cc1ccc(NC(=O)c2ccnc(C(C)(C)C#N)c2)cc1-c1cc(-c2ccnc(NC(=O)C3CC3)c2)cnn1
2. CC(=O)Nc1cc(-c2cccc(-c3cc(NC(=O)c4ccnc(C(F)(F)F)c4)cnc3C)c2)ccn1
3. Cc1ccc(NC(=O)c2ccnc(C(F)(F)F)c2)cc1-c1ccnc(-c2ccnc(NC(=O)CC#N)c2)n1
4. Cc1ccc(NC(=O)c2ccnc(C(C)(C)C#N)c2)cc1-c1cccc(-c2ccnc3[nH]ccc23)c1

1: ≥ 7.00; 2: ≥ 7.00; 3: ≥ 7.00; 4: ≥ 7.00

---

Consider the following compounds; for each one, report its pIC50.
Target: C-Raf kinase (SEQ. ID NO: 3) (Homo sapiens (Human), UniProt P04049, Y340D/Y341D)
Sequence (P04049 307-648 Y340D/Y341D): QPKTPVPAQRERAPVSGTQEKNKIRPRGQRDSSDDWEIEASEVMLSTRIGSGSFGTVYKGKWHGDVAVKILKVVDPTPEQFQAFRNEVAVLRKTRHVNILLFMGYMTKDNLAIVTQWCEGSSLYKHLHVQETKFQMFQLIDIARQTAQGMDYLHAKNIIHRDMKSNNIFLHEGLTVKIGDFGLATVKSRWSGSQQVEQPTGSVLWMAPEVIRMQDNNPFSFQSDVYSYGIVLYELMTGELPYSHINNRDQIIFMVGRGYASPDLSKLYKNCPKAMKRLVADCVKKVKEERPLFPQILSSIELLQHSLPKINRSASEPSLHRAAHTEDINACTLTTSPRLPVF
Assay: Biochemical Assay for C-Raf (1)
Settings: Table J, assay version (1); read-out: CRAF (1) IC50
pIC50: −log10 of the molar value.

CCOc1ncc(-c2cc(NC(=O)c3ccnc(C(F)(F)F)c3)ccc2C)cc1-c1ccnc(NC(=O)C2CC2)c1 [Example 71] = 6.30 to 7.00
CNC(=O)c1cc(-c2cnnc(-c3cc(NC(=O)c4ccnc(C(C)(C)F)c4)ccc3C)c2)ccn1 [Example 325] = 6.30 to 7.00
CC(=O)Nc1cc(-c2cccc(-c3cc(NC(=O)c4ccnc(C(F)(F)F)c4)cnc3C)c2)ccn1 [Example 64] = ≥ 7.00
CNC(=O)c1cc(-c2cnnc(-c3cc(NC(=O)c4ccnc(C(C)(C)C#N)c4)cnc3C)c2)ccn1 [Example 316] = 6.30 to 7.00
COC(=O)Nc1cc(-c2cnnc(-c3cc(NC(=O)COCC4CC4)ccc3C)c2)ccn1 [Example 360] = 6.30 to 7.00
Cc1ncc(NC(=O)c2ccnc(C(C)(C)F)c2)cc1-c1cccc(-c2cc(NC(=O)C3CC3)ncn2)c1 [Example 249] = ≥ 7.00

Lab note: each compound below needs its pIC50 filled in.
1. Cc1ccc(NC(=O)c2ccnc(C(F)F)c2)cc1-c1ccnc(-c2ccnc(NC(=O)C3CC3)c2)n1 [Example 189]
2. Cc1ccc(NC(=O)c2ccnc(C(C)(C)F)c2)cc1-c1ccnc(-c2ccnc(NC(=O)C3CC3)c2)n1 [Example 186]
3. CNc1cc(-c2cncc(-c3cc(NC(=O)c4ccnc(C(C)(C)C#N)c4)ccc3C)n2)ccn1 [Example 173]
4. CNC(=O)c1cc(-c2cccc(-c3cc(NC(=O)c4ccnc(C(F)(F)F)c4)ccc3C)c2)ncn1 [Example 106]
5. CC(=O)Nc1cc(-c2cc(-c3cc(NC(=O)c4ccnc(C(F)(F)F)c4)ccc3C)nn(C)c2=O)ccn1 [Example 34]
6. Cc1ncc(NC(=O)c2ccnc(C3CC3)c2)cc1-c1ccnc(-c2ccnc(NC(=O)C3CC3)c2)c1 [Example 253]
7. Cc1cc(F)c(NC(=O)c2ccnc(C(F)F)c2)cc1-c1ccnc(-c2ccnc(NC(=O)C3CC3)c2)c1 [Example 307]

1: ≥ 7.00; 2: ≥ 7.00; 3: ≥ 7.00; 4: ≥ 7.00; 5: 5.00 to 6.00; 6: ≥ 7.00; 7: ≥ 7.00

---

Target: B-Raf kinase (SEQ. ID NO: 2) (Homo sapiens (Human), UniProt P15056)
Sequence (P15056 416-766): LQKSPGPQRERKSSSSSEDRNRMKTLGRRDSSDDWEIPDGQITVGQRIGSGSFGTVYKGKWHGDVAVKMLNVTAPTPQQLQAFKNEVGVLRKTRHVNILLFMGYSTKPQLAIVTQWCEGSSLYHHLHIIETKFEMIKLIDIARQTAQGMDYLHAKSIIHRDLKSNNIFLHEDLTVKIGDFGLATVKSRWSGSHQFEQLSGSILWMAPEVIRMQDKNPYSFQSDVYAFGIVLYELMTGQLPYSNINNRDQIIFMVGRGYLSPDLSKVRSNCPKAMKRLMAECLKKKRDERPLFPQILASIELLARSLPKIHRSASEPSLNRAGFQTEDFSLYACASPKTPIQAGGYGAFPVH
Test: Biochemical Assay for B-Raf (1)
Conditions: Table J, assay version (1); read-out: BRAF (1) IC50
readout-name: IC50

// known answers, use as guide
COCC(=O)Nc1cc(-c2cncc(-c3cc(NC(=O)c4ccnc(C(F)(F)F)c4)ccc3C)n2)ccn1 [Example 99] = ≤ 0.1 µM
CNc1cc(-c2cccc(-c3cc(NC(=O)c4ccnc(C(C)(C)C#N)c4)ccc3C)c2)ncn1 [Example 160] = ≤ 0.1 µM
Cc1ccc(NC(=O)c2ccnc(C(C)(C)C#N)c2)cc1-c1nccc(-c2ccnc3c2CC(=O)N3)n1 [Example 22] = ≤ 0.1 µM
CCOc1ncc(-c2cc(NC(=O)c3ccnc(C(F)(F)F)c3)ccc2C)cc1-c1ccnc(C(=O)NC)c1 [Example 69] = 0.1 to 0.5 µM
Cc1ccc(NC(=O)c2ccnc(C3CC3)c2)cc1-c1cc(-c2ccnc(NC(=O)C3CC3)c2)cnn1 [Example 331] = ≤ 0.1 µM

Then this molecule:
Per the records, this molecule ( CC(=O)Nc1cc(-c2cncc(-c3cc(NC(=O)c4ccnc(C5(C#N)CC5)c4)ccc3C)n2)ccn1 [Example 146] ) has IC50 equal to ≤ 0.1 µM

---

Target: C-Raf kinase (SEQ. ID NO: 3) (Homo sapiens (Human), UniProt P04049, Y340D/Y341D)
Experiment: Biochemical Assay for C-Raf (1)
Details: Table J, assay version (1); read-out: CRAF (1) IC50
readout-name: IC50

CNc1cc(-c2cccc(-c3cc(NC(=O)c4ccnc(C(C)(C)C#N)c4)ccc3C)c2)ncn1 [Example 160] = ≤ 100 nM

Lab note: each molecule below needs its IC50 filled in.
1. CNC(=O)c1cc(-c2cnnc(-c3cc(NC(=O)c4ccnc(C(F)(F)F)c4)ccc3C)c2)ccn1 [Example 364]
2. CNC(=O)c1cc(-c2cc(-c3cc(NC(=O)c4cccc(C(C)(C)C#N)c4)ccc3C)ccn2)ccn1 [Example 127]
3. Cc1nc(-c2ccnc(NC(=O)C3CC3)c2)cc(-c2cc(NC(=O)c3ccnc(C4(C#N)CC4)c3)cnc2C)n1 [Example 286]

["100 to 500 nM", "≤ 100 nM", "≤ 100 nM"]

Lab note: each molecule below needs its IC50 filled in.
1. Cc1ccc(NC(=O)c2ccnc(C(C)(C)C#N)c2)cc1-c1cccc(-c2ncnc3c2CC(=O)N3)c1 [Example 109]
2. CNC(=O)c1cc(-c2cccc(-c3cc(NC(=O)c4ccnc(C(C)(C)C#N)c4)cnc3C)c2)ncn1 [Example 204]

1: ≤ 100 nM; 2: 100 to 500 nM

Lab note: each molecule below needs its IC50 filled in.
1. CC(=O)Nc1cc(-c2cc(-c3cc(NC(=O)c4ccnc(C)c4)ccc3C)ncn2)ccn1 [Example 59]
2. CC(=O)Nc1cc(-c2cc(-c3cc(NC(=O)c4ccnc(C(F)(F)F)c4)ccc3F)cc(C)n2)ccn1 [Example 65]
3. Cc1ccc(NC(=O)c2ccnc(C3(C#N)CC3)c2)cc1-c1ccnc(-c2ccnc(NC(=O)C3CC3)c2)n1 [Example 180]

["≤ 100 nM", "≤ 100 nM", "≤ 100 nM"]
